Experiment summary: Oral bioavailability in rat at 2.6 mg/kg
Assay type: ADME, organism-based
Protocol conditions: in vivo
Parameter measured: bioavailability (%)
Numbers only, in %.

Provide one value: measured bioavailability of Cn1cc(Nc2nn3c(C(F)(F)c4ccc5ncccc5c4)nnc3s2)cn1
29

---

Experiment summary: Cmax in rat at 2.6 mg/kg, po
Assay type: ADME, organism-based
Set-up: route oral, dose 2.6 mg/kg
Protocol conditions: in vivo
Parameter measured: Cmax (ng/mL)
One number for each entry, in ng/mL.

Provide one value: measured Cmax of Cn1cc(Nc2nn3c(C(F)(F)c4ccc5ncccc5c4)nnc3s2)cn1
150

---

Experiment summary: Clearance in rat at 0.9 mg/kg, iv
Format: ADME, organism-based
Protocol conditions: in vivo
Parameter measured: clearance (mL/min/kg)
Answers are plain numbers, in mL/min/kg.

Provide one value: measured clearance of Cn1cc(Nc2nn3c(C(F)(F)c4ccc5ncccc5c4)nnc3s2)cn1
25

---

Experiment summary: Half life in dog at 0.8 mg/kg, iv
Format: ADME, organism-based, Canis lupus familiaris
Protocol conditions: in vivo
Parameter measured: half-life (min)
Answers are plain numbers, in min.

Provide one value: measured half-life of Cn1cc(Nc2nn3c(C(F)(F)c4ccc5ncccc5c4)nnc3s2)cn1
216

---

Experiment summary: Stability in human liver microsomes after 30 mins
Parameter measured: remaining at 0.5 h (%)
Answers are plain numbers, in %.

Recorded remaining at 0.5 h, per entry:
Provide one value: measured remaining at 0.5 h of Oc1ccc(Cn2cnc3ncc(-c4ccc(F)cc4)nc32)cc1
51

Provide one value: measured remaining at 0.5 h of Oc1ccc(Cc2nnc3sc(Nc4ccccc4)nn23)cc1
68

Provide one value: measured remaining at 0.5 h of Oc1ccc(Cc2nnc3n2N=C(c2ccc(F)cc2)CS3)cc1
73

# evaluate next
Provide one value: measured remaining at 0.5 h of Oc1ccc(Cc2nnc3ccc(-c4ccc(F)cc4)nn23)cc1
50

---

Experiment summary: Clearance in rat at 1 mg/kg, iv
Assay type: ADME, organism-based
Protocol conditions: in vivo
Parameter measured: clearance (mL/min/kg)
Numbers only, in mL/min/kg.

Provide one value: measured clearance of Cn1cc(-c2nn3c(Cc4ccc5ncccc5c4)nnc3s2)cn1
24.5

---

Experiment summary: Stability in rat liver microsomes after 30 mins
Parameter measured: remaining at 0.5 h (%)
One number for each entry, in %.

Recorded remaining at 0.5 h, per entry:
Provide one value: measured remaining at 0.5 h of Oc1ccc(Cc2nnc3ccc(-c4ccc(F)cc4)nn23)cc1
32

Provide one value: measured remaining at 0.5 h of Oc1ccc(Cc2nnc3sc(Nc4ccccc4)nn23)cc1
40

Provide one value: measured remaining at 0.5 h of Oc1ccc(Cn2cnc3ncc(-c4ccc(F)cc4)nc32)cc1
56

Next:
Provide one value: measured remaining at 0.5 h of Oc1ccc(Cc2nnc3n2N=C(c2ccc(F)cc2)CS3)cc1
2.6

---

Experiment summary: Half life in rat at 1 mg/kg, iv
Type: ADME, organism-based
Protocol conditions: in vivo
Parameter measured: half-life (h)
Give bare numbers, in h.

Provide one value: measured half-life of Cn1cc(-c2nn3c(Cc4ccc5ncccc5c4)nnc3s2)cn1
1.1

---

Assay target: UniProt Q14432
Sequence (Q14432 whole entry, the tested form may be a part): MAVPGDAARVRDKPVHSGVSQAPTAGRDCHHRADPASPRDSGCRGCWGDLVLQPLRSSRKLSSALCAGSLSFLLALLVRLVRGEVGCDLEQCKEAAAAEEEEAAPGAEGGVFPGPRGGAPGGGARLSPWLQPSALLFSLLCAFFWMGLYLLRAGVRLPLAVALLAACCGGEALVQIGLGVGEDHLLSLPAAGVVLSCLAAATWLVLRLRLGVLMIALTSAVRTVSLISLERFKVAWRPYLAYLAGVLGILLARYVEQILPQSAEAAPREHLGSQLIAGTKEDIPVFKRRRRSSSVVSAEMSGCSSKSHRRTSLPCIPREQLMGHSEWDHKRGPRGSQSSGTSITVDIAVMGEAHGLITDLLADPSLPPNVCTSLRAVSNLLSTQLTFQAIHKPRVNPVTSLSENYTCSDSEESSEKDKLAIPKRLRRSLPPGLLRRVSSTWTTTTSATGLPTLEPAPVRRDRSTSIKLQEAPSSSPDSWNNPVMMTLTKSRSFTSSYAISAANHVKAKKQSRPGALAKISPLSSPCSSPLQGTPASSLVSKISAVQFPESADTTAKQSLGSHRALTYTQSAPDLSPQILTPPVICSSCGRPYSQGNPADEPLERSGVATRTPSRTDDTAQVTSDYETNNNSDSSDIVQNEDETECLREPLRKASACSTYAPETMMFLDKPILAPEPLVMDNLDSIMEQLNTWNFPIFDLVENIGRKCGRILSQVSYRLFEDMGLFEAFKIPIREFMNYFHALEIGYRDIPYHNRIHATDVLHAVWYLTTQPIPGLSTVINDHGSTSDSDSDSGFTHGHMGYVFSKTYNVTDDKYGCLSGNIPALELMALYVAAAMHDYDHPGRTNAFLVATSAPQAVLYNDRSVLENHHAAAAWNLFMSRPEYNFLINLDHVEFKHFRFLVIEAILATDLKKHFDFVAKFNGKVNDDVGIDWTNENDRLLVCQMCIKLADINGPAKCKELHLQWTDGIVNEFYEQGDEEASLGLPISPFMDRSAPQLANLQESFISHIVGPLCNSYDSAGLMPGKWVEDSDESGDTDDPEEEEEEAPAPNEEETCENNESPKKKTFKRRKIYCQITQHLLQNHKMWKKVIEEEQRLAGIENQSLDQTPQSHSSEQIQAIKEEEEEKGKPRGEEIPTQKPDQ
Experiment summary: Inhibition of recombinant human N-terminal GST/His-tagged PDE3A (669 to 1141 residues) expressed in baculovirus infected Sf9 insect cells using iFL-cAMP as substrate preincubated for 15 mins followed by substrate addition and measured after 40 mins by fluorescence assay
pIC50: −log10 of the molar value.
The threshold is inclusive: pIC50 of exactly 6 counts as Fulfilled; values below receive Not fulfilled.

Is reported pIC50 greater than or equal to 6 here: C[C@@H](c1ccc2ncccc2c1)c1nnc2sc(Nc3cnn(C)c3)nn12
Not fulfilled

Is reported pIC50 greater than or equal to 6 here: Cn1cc(Nc2nn3c(C(F)(F)c4ccc5ncccc5c4)nnc3s2)cn1
Not fulfilled

Is reported pIC50 greater than or equal to 6 here: C[C@@H](c1ccc2ncccc2c1)c1nnc2sc(-c3cnn(C)c3)nn12
Fulfilled

Next:
Is reported pIC50 greater than or equal to 6 here: Cc1nn(C)cc1-c1nn2c([C@H](C)c3ccc4ncccc4c3)nnc2s1
Fulfilled

Is reported pIC50 greater than or equal to 6 here: C[C@H](c1ccc2ncccc2c1)c1nnc2sc(-c3cnn(C)c3)nn12
Not fulfilled

Is reported pIC50 greater than or equal to 6 here: Cc1nn(C)cc1-c1nn2c([C@@H](C)c3ccc4ncccc4c3)nnc2s1
Fulfilled
